Every entry's value here was drawn from patent US8802849B2.

- tested system: CDK2/CycA (Homo sapiens)
- experiment description: CDK2/CycA kinase assay
- Type: biochemical
- experimental parameters: 10 μM compound; read-out: CDK2/CycA percent of inhibition
measure: inhibition at 10 µM (%)

Lookup: Which inhibition at 10 µM value is on record for Nc1ccc(Nc2ncnc3sc4c(c23)CCCC4)cc1 [Compound 8] ?
Found: 12

(1) Oc1cccc(Nc2nc(C3CC3)nc3sc4ccccc4c23)c1 [Compound 19]
(2) O=[N+]([O-])c1cccc(Nc2nc(C3CC3)nc3sc4c(c23)CCCC4)c1 [Compound 13]
Lookup: Pick one: 1 or 2 . Which has the bigger inhibition at 10 µM number? Answer by stating the label of the chosen item.
Found: 1

----------
- tested system: SRPK1 (Homo sapiens)
- Sequence (Q96SB4 whole entry, species assumed): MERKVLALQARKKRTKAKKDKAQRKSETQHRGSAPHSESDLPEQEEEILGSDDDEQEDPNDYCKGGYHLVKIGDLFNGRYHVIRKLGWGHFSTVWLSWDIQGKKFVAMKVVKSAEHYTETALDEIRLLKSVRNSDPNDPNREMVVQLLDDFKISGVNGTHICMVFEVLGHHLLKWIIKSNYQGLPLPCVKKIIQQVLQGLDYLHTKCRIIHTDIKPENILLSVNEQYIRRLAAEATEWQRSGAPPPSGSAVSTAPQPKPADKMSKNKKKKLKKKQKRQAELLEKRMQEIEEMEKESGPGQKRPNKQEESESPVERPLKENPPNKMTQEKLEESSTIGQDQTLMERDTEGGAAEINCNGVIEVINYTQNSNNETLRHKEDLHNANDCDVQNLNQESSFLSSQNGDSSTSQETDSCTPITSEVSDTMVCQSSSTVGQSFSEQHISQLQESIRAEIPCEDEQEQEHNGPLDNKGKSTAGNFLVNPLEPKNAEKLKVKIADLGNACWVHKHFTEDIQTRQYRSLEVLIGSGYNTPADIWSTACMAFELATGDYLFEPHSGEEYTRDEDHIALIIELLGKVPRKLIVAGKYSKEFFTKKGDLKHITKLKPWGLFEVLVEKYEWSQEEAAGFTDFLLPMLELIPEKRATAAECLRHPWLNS
- experiment description: SRPK1 kinase assay
- Type: biochemical
- experimental parameters: 10 μM compound; read-out: SRPK1 percent of inhibition
measure: inhibition at 10 µM (%)

(A) Brc1cccc(Nc2ncnc3sc4ccccc4c23)c1 [Compound 23]
(B) Clc1ccc(Nc2ncnc3sc4c(c23)CCCC4)cc1 [Compound 7]
Lookup: Dear colleague, could you let me know whether A or B has the lower recorded inhibition at 10 µM? Thanks. // return label of chosen record
Found: B
(B: -3%, A: 6%)

----------
- tested system: AKT1/PKBa (Homo sapiens)
- Sequence (P31749 whole entry): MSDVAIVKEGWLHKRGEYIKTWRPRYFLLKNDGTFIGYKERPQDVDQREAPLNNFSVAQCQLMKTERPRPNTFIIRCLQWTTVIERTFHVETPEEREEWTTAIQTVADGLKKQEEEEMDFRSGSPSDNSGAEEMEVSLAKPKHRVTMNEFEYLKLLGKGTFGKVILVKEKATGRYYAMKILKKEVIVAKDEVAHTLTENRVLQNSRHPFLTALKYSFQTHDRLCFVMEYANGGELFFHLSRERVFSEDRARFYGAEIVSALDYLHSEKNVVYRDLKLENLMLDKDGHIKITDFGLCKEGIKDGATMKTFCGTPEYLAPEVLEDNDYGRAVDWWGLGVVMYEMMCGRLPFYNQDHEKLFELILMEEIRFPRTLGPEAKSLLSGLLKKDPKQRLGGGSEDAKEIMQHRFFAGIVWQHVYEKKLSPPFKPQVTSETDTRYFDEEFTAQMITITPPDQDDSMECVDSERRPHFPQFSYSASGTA
- experiment description: AKT1/PKBa kinase assay
- Type: biochemical
- experimental parameters: 10 μM compound; read-out: AKT1/PKBa percent of inhibition
measure: inhibition at 10 µM (%)

Completed entries (count: 8):
Lookup: Tell me the measured inhibition at 10 µM of Fc1cccc(Nc2nc(C3CC3)nc3sc4ccccc4c23)c1 , please.
Found: -7

Lookup: State the recorded inhibition at 10 µM for this entry: Nc1cccc(Nc2nc(C3CC3)nc3sc4c(c23)CCCC4)c1
Found: -13

Lookup: Entry under review: COc1cccc(Nc2nc(C3CC3)nc3sc4c(c23)CCCC4)c1 . Reported inhibition at 10 µM?
Found: -9

Lookup: Given N#Cc1cccc(Nc2ncnc3sc4c(c23)CCCC4)c1 , state its recorded inhibition at 10 µM.
Found: -25

Lookup: Can you look up the measured inhibition at 10 µM of Brc1cccc(Nc2nc(C3CC3)nc3sc4ccccc4c23)c1 for me?
Found: 0

Lookup: Requested field: inhibition at 10 µM. Item: Clc1cccc(Nc2nc(C3CC3)nc3sc4ccccc4c23)c1
Found: -1

Lookup: Given the compound Fc1cccc(Nc2ncnc3sc4ccccc4c23)c1 , what is its reported inhibition at 10 µM?
Found: 3

Lookup: Give the measured inhibition at 10 µM of COc1cccc(Nc2nc(C3CC3)nc3sc4ccccc4c23)c1 .
Found: -2

(1) FC(F)(F)c1cccc(Nc2nc(C3CC3)nc3sc4c(c23)CCCC4)c1
(2) Fc1ccccc1Nc1ncnc2sc3c(c12)CCCC3
(3) N#Cc1cccc(Nc2nc(C3CC3)nc3sc4c(c23)CCCC4)c1
Lookup: Put the entries in order of inhibition at 10 µM, starting with the largest number. Return the labels ranked in the requested order, please.
Found: 1, 3, 2

(1) Nc1ccc(Nc2ncnc3sc4c(c23)CCCC4)cc1
(2) Oc1cccc(Nc2nc(C3CC3)nc3sc4c(c23)CCCC4)c1
(3) Oc1cccc(Nc2nc(C3CC3)nc3sc4ccccc4c23)c1
Lookup: Parameters: sort_field (inhibition at 10 µM), sort_dir (desc). Your task in answering is to list the labels in the requested order.
Found: 1, 2, 3
